System: HOP-92 NSCLC
Assay: NCI-60 one-dose screen, 48 h
Conditions: 10 µM unless noted
Compounds without any hit were thinned out: in the full panel of roughly 83,000, 20% have a hit. Active and inactive are the calls of the source. The calls were made as follows: active = growth percent below 10; inactive = the rest.
Result category, one only: 1.0 for active, 0.0 for inactive

As a guide, the following entries are already answered.
CC(=O)O[C@H]1CC[C@@]2(C)C(=CC[C@@H]3[C@@H]2CC[C@]2(C)C(c4cccnc4)=CC[C@@H]32)C1 ... 0.0
Clc1ccc2nc(CI)c(CI)nc2c1 ... 0.0
COc1ccc(/C=C/C(=O)c2cccc(NS(C)(=O)=O)c2)cc1 ... 0.0

Task: So what was the verdict on CCOC(=O)C(Br)=P(c1ccccc1)(c1ccccc1)c1ccccc1 in this test?
Output: 0.0

Task: So what was the verdict on N#Cc1c(-c2ccccc2)cc(-c2ccccc2)n(CC(=O)O)c1=O in this test?
Output: 0.0

Task: So what was the verdict on Oc1ccccc1/C=N/N1CCCCCC1 in this test?
Output: 0.0

Task: So what was the verdict on N#Cc1c(-c2ccccc2)cc(-c2ccccc2)n(CCCCCCC(=O)O)c1=O in this test?
Output: 0.0

Task: So what was the verdict on O=C(O)C1C(c2ccccc2)c2ccccc2C(O)C1CO (stereo unspecified) in this test?
Output: 0.0

Task: So what was the verdict on O=c1c2c(=NCCCN3CCCC3)cc3c(=O)n(CCCN4CCCC4)c(=O)c4c(NCCCN5CCCC5)cc(c(O)n1CCCN1CCCC1)c2c4-3 in this test?
Output: 1.0

Task: So what was the verdict on CC12CCC3C(=CCc4cc(O)ccc43)C1CCC2=O (stereo unspecified) in this test?
Output: 0.0

Task: So what was the verdict on CC[N+](CCCCCCCCCC[N+](CC)(c1ccccn1)c1ccccn1)(c1ccccn1)c1ccccn1 in this test?
Output: 1.0

Task: So what was the verdict on Cc1[nH]c(=O)[nH]c(=O)c1CCSSCCc1c(C)[nH]c(=O)[nH]c1=O in this test?
Output: 0.0

Task: So what was the verdict on Fc1ccccc1C1c2ccccc2-c2nccn21 (stereo unspecified) in this test?
Output: 0.0

Task: So what was the verdict on O=C(COc1ccc(/C=C2\Oc3ccc4ccccc4c3C2=O)cc1)c1ccc(Cl)cc1 in this test?
Output: 0.0

Task: So what was the verdict on CCN(Cc1cccc(S(=O)(=O)[O-])c1)c1ccc(C(=C2C=CC(=[N+](CC)Cc3cccc(S(=O)(=O)O)c3)C=C2)c2ccccc2S(=O)(=O)O)cc1 in this test?
Output: 0.0

Task: So what was the verdict on CCSCC1CC(O)(c2ccccc2)C(c2ccccc2)C(c2ccc(Cl)cc2)O1 (stereo unspecified) in this test?
Output: 1.0

====

Test system: NCI-H460 lung
Experiment: NCI-60 one-dose screen, 48 h
Conditions: 10 µM unless noted
About 83,000 compounds went through this panel and 20% of them were active in at least one assay; those are over-represented in the sample as a whole. Activity calls are given as the source filed them. Rule for the calls: active = growth percent below 10; inactive = the rest.
Result category, one only: y = active, n = inactive

As a guide, the following entries are already answered.
COc1cc(/C=C2\SC(N3CCCCC3)=NC2=O)ccc1OCCCCCCOc1ccc(/C=C2\SC(N3CCCCC3)=NC2=O)cc1OC ... y
COc1cc(/C=C/C(=O)CC(=O)/C=C/c2ccc(OC(=O)CCNC34CC5CC(CC(C5)C3)C4)c(OC)c2)ccc1OC(=O)CCNC12CC3CC(CC(C3)C1)C2 ... n
Cc1cc(=O)oc2cc(OCCn3c(C)nn(-c4ccc(Cl)cc4)c3=O)ccc12 ... n
Clc1ccc2[nH]cc(-c3cncn3CCc3ccccc3)c2c1 ... n
O=C(COc1ccc(/C=C2\Oc3ccc4ccccc4c3C2=O)cc1)c1ccc(Cl)cc1 ... n
Nc1ncnc2c1CN(Cc1ccccc1)CC2 ... n

Task: So what was the verdict on COc1cc(/C=C/c2cc(/C=C/c3ccc(O)c(OC)c3)n(C(=O)Cc3ccccc3)n2)ccc1O in this test?
Output: y

The measurements presented in this section are drawn from PubChem BioAssay (NCI).
